Source: PubChem BioAssay (NCI)

System: K-562 leukemia
RUN DESCRIPTION: NCI tumour cell line growth inhibition, 48 h
QUANTITY KIND: TGI

* O=C1Nc2c(ccc(Cl)c2Cl)/C1=C/c1cc(Br)c(O)c(Br)c1 | > 100 µM
* CC(C)C[C@H](NC(=O)CNC(=O)c1cc(Cl)ccc1Cl)B(O)O | 1.21 µM
* COc1ccc(C2SC(N)=Nc3c2c(C)nn3C(=O)c2ccccc2O)cc1OC (stereo unspecified) | > 10 µM
* C=C(C)C12CC3CC(/C(=N/O)C(C1)/C3=N\O)[C@@]2(C)O (stereo partly specified) | > 100 µM
* NC1N=C(c2ccc(Cl)cc2)C2=C(N1)c1ccccc1CC2 (stereo unspecified) | > 26.1 µM
* Cc1[nH]c(=O)nc2nc3cc(Cl)cc(Cl)c3c(NC(C)(CO)CO)c12 | > 100 µM
* COc1ccc(Nc2nc3cc(N)cc(N)c3nc2-c2ccccc2)cc1 | > 100 µM
* O=C(CN(/C=C/C(=O)C(F)(F)F)c1ccc(Cl)cc1)c1ccc(Cl)cc1 | 32.5 µM
* Oc1ccc(C=Nc2ccccc2O)cc1 | > 100 µM
* CC(C)N(C(=O)C12C3C4C5(C#N)C3C1(C#N)C5C42C#N)C(C)C (stereo unspecified) | > 100 µM
* CCc1nc(N)nc(N)c1-c1ccc(Cl)c([N+](=O)[O-])c1 | > 100 µM

###

Tested on: NCI-H23 lung
RUN DESCRIPTION: NCI tumour cell line growth inhibition, 48 h
QUANTITY KIND: TGI

* CSC1=N/C(=C\c2ccc(Cl)cc2)C(=O)N1CN1CCCCC1 | > 100 µM
* N#CC12C(=O)NC(=O)C1(C#N)C1C=CC2CC1 (stereo unspecified) | > 100 µM
* C=C(C)C12CC3CC(/C(=N/O)C(C1)/C3=N\O)[C@@]2(C)O (stereo partly specified) | > 100 µM
* CC(=O)Oc1ccccc1 | > 100 µM
* CCc1nc(N)nc(N)c1-c1ccc(Cl)c([N+](=O)[O-])c1 | > 100 µM
* C=C(C)[C@H]1CC[C@@]2(C)C(C1)[C@H](C)CC[C@@H]2O (stereo partly specified) | > 100 µM
* CCOC(=O)c1cc(C2CCN(c3ccccc3)C2=O)c(/C(O)=C/C(C)=O)[nH]1 (stereo unspecified) | > 100 µM
* COc1ccc(C(c2ccccc2)(c2ccc(OC)cc2)N2C(=O)NC3C(CCCCC(=O)NCCCCCCOP(OCCC#N)N(C(C)C)C(C)C)SCC32)cc1 (stereo unspecified) | 32.3 µM
* C/C(=N\N=C(N)N)C(CN1CCCCC1)C(c1ccccc1)c1c(O)c2ccccc2oc1=O (stereo unspecified) | > 100 µM
* O=C(COc1ccc(Cl)c(Cl)c1)Nc1ccc[n+](Cc2ccc(S(=O)(=O)F)c(Cl)c2)c1 | > 100 µM
* CC(/C=C/C(=O)NO)=C\C(C)C(=O)c1ccc(N(C)C)cc1 (stereo unspecified) | 4 µM
* O=c1ccc2ccc(OP(=O)(O)O)cc2o1 | > 100 µM
* Cc1ccc2c(c1)C(=C(C#N)C#N)CCCS2(=O)=O | > 100 µM
* Cc1cc2nc(NCCN)n(Cc3ccc(F)c(Cl)c3)c2cc1C | 29.2 µM
* NNC(=O)C(=O)N/N=C(\CCCC(=O)Nc1ccc(Cl)cc1)CC(=O)c1ccc(F)cc1 | > 100 µM
* Cc1ccc(C)n1-c1ccccc1C1C=Cn2c(=O)nnc3c(OC(C)C)c(OC(C)C)c(O)c1c32 (stereo unspecified) | > 100 µM
* CCN1CCC(O)(c2ccc(Oc3ccc(Cl)cc3)cc2)C(C(=O)c2ccc(Oc3ccc(Cl)cc3)cc2)C1 (stereo unspecified) | 25.7 µM
* CC1=C(C#N)C(=C(C#N)C#N)OC1(C)Cc1ccccc1 (stereo unspecified) | > 100 µM
* C=CSCCC(N)C(=O)O (stereo unspecified) | > 100 µM
* CC(C)(C)C1=CC(=C(P(=O)(O)O)P(=O)(O)O)C=C(C(C)(C)C)C1=O | > 50 µM
* Cc1nc([N+](=O)[O-])cn1-c1nc2ccccn2c1[N+](=O)[O-] | > 100 µM

###

System: CCRF-CEM leukemia
RUN DESCRIPTION: NCI tumour cell line growth inhibition, 48 h; in the data active = GI50 below about 0.43 µM; inactive = the rest
Possible outcomes: Y (active), N (inactive)

• CCOC(=O)C1=CCCC[C@H]1S(=O)(=O)Nc1ccc(F)cc1Cl = N
• COc1ccc(/C=C\c2cc(OC)c(OC)c(OC)c2)cc1OCC(=O)Nc1nc2ccc(F)cc2s1 = N
• COc1ccc2ncn(-c3cc(O[C@H](C)c4ccccc4C(F)(F)F)c(C(N)=O)s3)c2c1 = Y
• Cc1onc(-c2ccccc2)c1C(=O)N/N=C/c1cc(Cl)cc(Cl)c1O = N
• CNC(=O)c1c(C)oc2cc(Oc3ncnc4cc(OC)c(OC)cc34)ccc12 = N
• O=C1N[C@@H]2[C@@H](O)[C@@H](O)[C@H](O)C[C@H]2c2cc3c(c(O)c21)OCCO3 = Y
• COc1ccc2c(c1)C(=O)c1c-2n(CCCN(C)C)c(=O)c2ccccc12 = Y
• C=C(c1ccc(OC)c(/C=C/C(=O)c2ccc3c(c2)OCO3)c1)c1cc(OC)c(OC)c(OC)c1 = N
• Cc1cc2c(C(=O)NC[C@H](C)c3ccccc3)c(O)c(O)cc2c(O)c1-c1c(C)cc2c(C(=O)NC[C@H](C)c3ccccc3)c(O)c(O)cc2c1O = Y

###

Below: a set of entries, each annotated with reported TGI.
Tested on: M14 melanoma
RUN DESCRIPTION: NCI tumour cell line growth inhibition, 48 h
QUANTITY KIND: TGI

* O=c1oc2ccc3ccccc3c2cc1-c1nnc(Nc2ccccc2)s1 | > 100 µM
* OCC1C(OCc2ccccc2)C(OCc2ccccc2)C(OCc2ccccc2)CN1Cc1ccccc1 (stereo not drawn) | > 100 µM
* O=C(Nc1ccc(C(F)(F)F)cc1)NC(F)(F)F | > 100 µM

###

Test system: CCRF-CEM leukemia
RUN DESCRIPTION: NCI tumour cell line growth inhibition, 48 h
QUANTITY KIND: GI50

• O=c1oc2ccc(I)cc2c(=O)n1-c1ccc(Br)cc1F = 1930 nM
• O=C(CN(/C=C/C(=O)C(F)(F)F)c1ccc(Cl)cc1)c1ccc(Cl)cc1 = 5110 nM
• COc1ccc(C2(Cl)c3ccccc3N(c3ccccc3)c3ccccc32)cc1 = 1990 nM
• O=c1c2c(nc3n1CCS3)[nH]c1cc([N+](=O)[O-])ccc12 = > 100000 nM

###

Below: a set of entries, each annotated with reported TGI.
System: A549 NSCLC
RUN DESCRIPTION: NCI tumour cell line growth inhibition, 48 h
QUANTITY KIND: TGI

- CCCCc1ccc(N=C(N)N)cc1: > 100 µM
- CCOc1cc(C2CC(c3ccc(NS(=O)(=O)c4cc([N+](=O)[O-])ccc4C)cc3)=NN2S(=O)(=O)c2cc([N+](=O)[O-])ccc2C)ccc1O (stereo not given): > 100 µM
- CC(=O)c1nc2ccccc2n1C(C)C(=O)c1ccccc1 (stereo not given): > 100 µM
- Cc1ccc(O)c(C(c2cccc(C(c3cc(C)ccc3O)c3cc(C)ccc3O)c2)c2cc(C)ccc2O)c1: 4 µM
- COc1cc2c(c(OC)c1OC)-c1ccc(OC)c(=O)cc1C(NC(=O)COc1ccccc1)CC2 (stereo not given): > 100 µM

###

Below: a set of entries, each annotated with reported TGI.
System: SF-295 CNS
RUN DESCRIPTION: NCI tumour cell line growth inhibition, 48 h
Where a SMILES comes first, the peptide text is derived from it. The star is where a group is joined. Fmoc = O=C(OCC1c2ccccc2-c2ccccc21)*; OtBu = CC(C)(C)O*
QUANTITY KIND: TGI

• C=CC(=O)Nc1ccc(NC(=O)C=C)c2c1C(=O)c1ccccc1C2=O = 49.8 µM
• OC1(C(Sc2cc(C(F)(F)F)cc(C(F)(F)F)c2)Sc2cc(C(F)(F)F)cc(C(F)(F)F)c2)C=CCCC1 (stereo not given) = 6.39 µM
• CC(=O)c1nc2ccccc2n1C(C)C(=O)c1ccccc1 (stereo not given) = > 100 µM
• CC(C)(O)C(O)COc1c2c(cc3oc(=O)ccc13)OCO2 (stereo not given) = > 100 µM
• O=C(C(=O)c1cc2ccccc2[nH]1)c1cc2ccccc2[nH]1 = > 347 µM
• CNC(=O)c1c(C)oc2cc(Oc3ncnc4cc(OC)c(OC)cc34)ccc12 = > 100 µM
• c1ccc2c(CSCc3cccc4ccccc34)cccc2c1 = > 100 µM
• C=CCNC(=O)NCCCCC(NC(C)=O)C(=O)NCc1ccccc1 (stereo not given) = > 100 µM
• COc1ccc(Cc2c3cc(O)c(=O)cc-3ccn2C)cc1 = > 100 µM
• COc1cc(/C=C2\C(=O)N(C(=O)Cc3ccccc3)N=C2C)cc(OC)c1OC = > 100 µM
• O=C(O)c1cc(-c2ccc3cc4c(cc3c2)OCO4)nc2ccccc12 = > 100 µM
• CC(=O)Oc1ccccc1 = > 100 µM
• CC(/C=C/C(=O)NO)=C\C(C)C(=O)c1ccc(N(C)C)cc1 (stereo not given) = 0.454 µM
• CN=C1Nc2ccccc2C(=O)N2CSCC12 (stereo not given) = > 100 µM
• CC1=C(C(=O)OC2CC3CCC2(C)C3(C)C)C2Nc3ccccc3N(C)C2O1 (stereo not given) = 3.04 µM
• Cc1ccc(CC(Cc2ccccc2C)C(=O)O)c(C(=O)O)c1 (stereo not given) = > 100 µM
• O=C1/C(=C/c2cccc(Cl)c2)CCCc2ccccc21 = 31.6 µM
• C/C=C(\C)c1cc(=O)c2c(C)cc3c(c2o1)C(=O)c1c(O)c(C2CC(C)(N(C)C)C(OC(C)=O)C(C)O2)cc(C2CC(N(C)C)C(O)C(C)O2)c1C3=O (stereo not given) = > 16.9 µM
• C=CCN(c1cc(OC)c(NC(C)=O)cc1[N+](=O)[O-])S(C)(=O)=O = > 100 µM
• NC1N=C(c2ccc(Cl)cc2)C2=C(N1)c1ccccc1CC2 (stereo not given) = > 100 µM
• COC(=O)c1c([N+](=O)[O-])ncn1[C@H]1OC[C@@H](OC(C)=O)[C@@H](OC(C)=O)[C@@H]1OC(C)=O = > 100 µM
• Cc1cnc2ccc(C)c([N+](=O)[O-])c2c1NCCCN(C)C = > 100 µM
• COc1cc(C2C(Cl)C(=O)N2NC(=O)Cc2ccccc2)cc(Br)c1O (stereo not given) = > 100 µM
• CSc1ccc2c(cc1=O)[C@@H](NC(=O)c1cccc([N+](=O)[O-])c1)CCc1cc(O)c(O)c(O)c1-2 = > 100 µM
• OCC1C(OCc2ccccc2)C(OCc2ccccc2)C(OCc2ccccc2)CN1Cc1ccccc1 (stereo not given) = > 100 µM
• Cc1c2ccccc2c(C2C3C(=O)N(c4ccc(Br)cc4)C(=O)C3ON2C(C(N)=O)c2ccccc2)c2ccccc12 (stereo not given) = 58.5 µM
• CCOC(=O)Cc1c(C)c2cc(C(=O)c3ccccc3)c(O)cc2oc1=O = > 100 µM
• O=C1NC2c3c(I)sc(I)c3C(=O)C2O1 (stereo not given) = 30.5 µM
• COC(COC(N)=O)C1=C(N2CC2)C(=O)C(C)=C(N2CC2)C1=O (stereo not given) = 0.413 µM
• Cc1onc(-c2ccccc2)c1C(=O)N/N=C/c1cc(Cl)cc(Cl)c1O = 11.3 µM
• Cc1cc(NC2=CC(=O)C(=O)c3ccccc32)no1 = 21.6 µM
• COC(=O)[C@]12CC3C=CC1N(C3)C(CBr)c1c2n(S(=O)(=O)c2ccccc2)c2ccccc12 (stereo not given in full) = > 100 µM
• CCc1nc(N)nc(N)c1-c1ccc(Cl)c([N+](=O)[O-])c1 = > 70.4 µM
• OC(CNc1ccnc2cc(Cl)ccc12)CNc1ccnc2cc(Cl)ccc12 = 3.56 µM
• C=C(c1ccc(OC)c(/C=C/C(=O)c2ccc3c(c2)OCO3)c1)c1cc(OC)c(OC)c(OC)c1 = > 100 µM
• COc1ccc2c(c1)C(=O)c1c-2n(CCCN(C)C)c(=O)c2ccccc12 = 1.21 µM
• C=CN(C(=O)N1CCN(c2cc3c(cc2F)c(=O)c(C(=O)O)cn3C2CC2)CC1)c1nc(-c2ccc(OC)cc2)cs1 = 8.26 µM
• CSC1=N/C(=C\c2ccc(Cl)cc2)C(=O)N1CN1CCCCC1 = > 100 µM
• CC(C)C(NC(=O)OCC1c2ccccc2-c2ccccc21)C(=O)NC(CCC(=O)OC(C)(C)C)C(=O)OC(C)(C)C (stereo not given) (Fmoc-Val-Glu(OtBu)-OtBu; configuration not given here) = > 89.1 µM
• O=C(/C=C\c1ccccc1O)c1ccc(O)cc1O = > 100 µM
